Listed next: entries and their corresponding IC50.
study_system: human P2X3 receptor (Homo sapiens, UniProt P56373)
Construct: expressed in transfected cells; host or cells: CHO-K1
Sequence (P56373 1-397): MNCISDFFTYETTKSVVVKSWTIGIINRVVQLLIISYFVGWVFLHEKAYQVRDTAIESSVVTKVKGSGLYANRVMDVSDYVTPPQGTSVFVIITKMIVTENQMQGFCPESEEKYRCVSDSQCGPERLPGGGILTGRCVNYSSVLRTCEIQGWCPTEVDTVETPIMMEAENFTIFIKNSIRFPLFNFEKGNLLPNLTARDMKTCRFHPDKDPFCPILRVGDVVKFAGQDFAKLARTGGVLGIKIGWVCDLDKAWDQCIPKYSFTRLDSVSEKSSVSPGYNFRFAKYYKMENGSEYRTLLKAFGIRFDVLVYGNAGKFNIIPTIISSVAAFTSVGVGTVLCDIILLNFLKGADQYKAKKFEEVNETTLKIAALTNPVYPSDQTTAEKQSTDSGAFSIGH
method_description: Calcium luminescence (photoprotein) assay in CHO-K1 cells co-expressing human P2X3 receptor, α,β-Met-ATP stimulation, FLEXSTATION readout
Format: cell-based
test_settings: Table 6; human P2X3 receptor antagonist activity, CHO-K1 cells, α,β-Met-ATP; read-out: h-P2X3 IC50

[
  {
    "compound": "O=C1N(Cc2ccc(Cl)cc2)c2cc(N3CCOCC3)cnc2C2=NCC(C3CC3)N12 (centres unmarked)",
    "IC50 / nM": 428
  },
  {
    "compound": "COc1cc(CN2C(=O)N3CC(C4CCCCC4)N=C3c3ncc(N4CCOCC4)cc32)cc(OC)c1 (centres unmarked)",
    "IC50 / nM": 112
  },
  {
    "compound": "COc1ccc(CN2C(=O)N3CC(C(C)(C)C)N=C3c3ncc(N4CCOCC4)cc32)cc1 (centres unmarked)",
    "IC50 / nM": 124
  },
  {
    "compound": "O=C1N2CC(C3CCCCC3)N=C2c2ncc(N3CCOCC3)cc2N1Cc1ccc(Cl)cc1 (centres unmarked)",
    "IC50 / nM": 389
  },
  {
    "compound": "COCC1CN(c2cnc3c(c2)N(Cc2ccc(Cl)cc2)C(=O)N2CC(C(C)C)N=C32)C1 (centres unmarked)",
    "IC50 / nM": 690
  },
  {
    "compound": "COc1ccc(CN2C(=O)N3C(=NCC3COC(C)(C)C)c3ncc(N4CCOCC4)cc32)cc1 (centres unmarked)",
    "IC50 / nM": 218
  },
  {
    "compound": "COc1ccc(CN2C(=O)N3CC(CC(C)(C)C)N=C3c3ncc(N4CCOCC4)cc32)cc1 (centres unmarked)",
    "IC50 / nM": 408
  },
  {
    "compound": "COc1ccc(CN2C(=O)N3C(=NCC3C(C)C)c3ncc(N4CCOCC4)cc32)cc1 (centres unmarked)",
    "IC50 / nM": 5220
  }
]

---

study_system: human P2X3 receptor (Homo sapiens)
Construct: expressed in transfected cells; host or cells: CHO-K1
Sequence (P56373 1-397): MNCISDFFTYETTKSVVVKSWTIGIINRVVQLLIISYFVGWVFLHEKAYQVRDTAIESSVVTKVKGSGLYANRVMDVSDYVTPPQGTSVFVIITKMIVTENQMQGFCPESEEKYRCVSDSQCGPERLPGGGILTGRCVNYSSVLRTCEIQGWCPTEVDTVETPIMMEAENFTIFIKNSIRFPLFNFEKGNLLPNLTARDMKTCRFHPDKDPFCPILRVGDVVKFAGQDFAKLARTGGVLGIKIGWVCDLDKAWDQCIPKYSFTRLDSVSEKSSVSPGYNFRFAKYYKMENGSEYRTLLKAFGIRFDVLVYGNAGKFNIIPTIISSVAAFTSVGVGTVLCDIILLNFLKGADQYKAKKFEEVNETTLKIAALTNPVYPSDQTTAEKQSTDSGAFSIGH
method_description: Calcium luminescence (photoprotein) assay in CHO-K1 cells co-expressing human P2X3 receptor, α,β-Met-ATP stimulation, FLEXSTATION readout
Assay type: cell-based
test_settings: Table 7; human P2X3 receptor antagonist activity, CHO-K1 cells, α,β-Met-ATP; read-out: h-P2X3 IC50

[
  {
    "compound": "COc1cc(Cn2c(=O)n3c(C)c(C(C)C)nc3c3ncc(NCC4COC4)cc32)cc(OC)c1 [Example 83]",
    "unit_spec": "nM",
    "IC50": 292
  },
  {
    "compound": "CC(C)c1nnc2c3ncc(N4CCOCC4)cc3n(Cc3ccc(Cl)cc3)c(=O)n12 [Example 99]",
    "unit_spec": "nM",
    "IC50": 121
  },
  {
    "compound": "COc1cc(Cn2c(=O)n3c(C)c(C)nc3c3ncc(N4CCC(OC)CC4)cc32)cc(OC)c1 [Example 85]",
    "unit_spec": "nM",
    "IC50": 1300
  },
  {
    "compound": "COc1ccc(Cn2c(=O)n3c(C(C)C)nnc3c3ncc(N4CCOCC4)cc32)cc1 [Example 97]",
    "unit_spec": "nM",
    "IC50": 394
  },
  {
    "compound": "COc1cc(Cn2c(=O)n3c(C)c(C(C)C)nc3c3ncc(N4CCC(OC)CC4)cc32)cc(OC)c1 [Example 87]",
    "unit_spec": "nM",
    "IC50": 444
  },
  {
    "compound": "COc1ccc(Cn2c(=O)n3c(C)c(C(C)C)nc3c3ncc(N4CC5(COC5)C4)cc32)cc1 [Example 93]",
    "unit_spec": "nM",
    "IC50": 1010
  },
  {
    "compound": "COc1cc(Cn2c(=O)n3c(C)c(C)nc3c3ncc(N4CCOCC4)cc32)cc(OC)c1 [Example 82]",
    "unit_spec": "nM",
    "IC50": 332
  },
  {
    "compound": "CCc1c(C)nc2c3ncc(NCC4COC4)cc3n(Cc3cc(OC)cc(OC)c3)c(=O)n12 [Example 77]",
    "unit_spec": "nM",
    "IC50": 239
  },
  {
    "compound": "CC(C)Cc1nnc2c3ncc(N4CCOCC4)cc3n(Cc3ccc(Cl)cc3)c(=O)n12 [Example 108]",
    "unit_spec": "nM",
    "IC50": 175
  },
  {
    "compound": "COc1cc(Cn2c(=O)n3cc(CC(C)C)nc3c3ncc(N4CCN(C(=O)CO)CC4)cc32)cc(OC)c1 [Example 80]",
    "unit_spec": "nM",
    "IC50": 1530
  },
  {
    "compound": "COCC1CN(c2cnc3c(c2)n(Cc2ccc(OC)cc2)c(=O)n2c(C)c(C(C)C)nc32)C1 [Example 92]",
    "unit_spec": "nM",
    "IC50": 802
  },
  {
    "compound": "Cc1c(C(C)C)nc2c3ncc(N4CC5(COC5)C4)cc3n(Cc3ccc(Cl)cc3)c(=O)n12 [Example 91]",
    "unit_spec": "nM",
    "IC50": 507
  },
  {
    "compound": "COc1cc(Cn2c(=O)n3c(C)c(C)nc3c3ncc(N4CC5(COC5)C4)cc32)cc(OC)c1 [Example 81]",
    "unit_spec": "nM",
    "IC50": 269
  },
  {
    "compound": "COc1cc(Cn2c(=O)n3cc(CC(C)C)nc3c3ncc(N4CCOCC4)cc32)cc(OC)c1 [Example 74]",
    "unit_spec": "nM",
    "IC50": 416
  },
  {
    "compound": "CC(C)NC(=O)Cc1nnc2c3ncc(N4CCOCC4)cc3n(Cc3ccc(Cl)cc3)c(=O)n12 [Example 103]",
    "unit_spec": "nM",
    "IC50": 811
  },
  {
    "compound": "Cc1noc(C)c1-c1nnc2c3ncc(N4CCOCC4)cc3n(Cc3ccc(Cl)cc3)c(=O)n12 [Example 110]",
    "unit_spec": "nM",
    "IC50": 257
  }
]
